TGT: Mu-type opioid receptor (Homo sapiens, UniProt P35372)
Sequence (P35372 whole entry): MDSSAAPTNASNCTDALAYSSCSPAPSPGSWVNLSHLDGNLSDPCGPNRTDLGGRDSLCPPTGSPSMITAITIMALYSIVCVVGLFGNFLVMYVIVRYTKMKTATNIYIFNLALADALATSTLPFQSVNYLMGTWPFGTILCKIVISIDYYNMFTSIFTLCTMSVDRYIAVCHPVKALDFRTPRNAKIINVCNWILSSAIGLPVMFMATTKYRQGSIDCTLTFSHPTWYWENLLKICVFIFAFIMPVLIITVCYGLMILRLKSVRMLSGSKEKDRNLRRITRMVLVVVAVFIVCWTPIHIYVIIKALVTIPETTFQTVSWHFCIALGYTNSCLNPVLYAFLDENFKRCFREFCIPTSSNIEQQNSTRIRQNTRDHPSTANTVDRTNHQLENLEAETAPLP
PROTOCOL_DESCRIPTION: Agonist activity at human MOP expressed in HEK293 cells coexpressing GloSensor-20F assessed as inhibition of forskolin-induced cAMP accumulation relative to control
Type: functional, cell-based
CONDITIONS_USED: filed as agonist
Numbered stars: 1 amine (or outer) side, 2 acyl side, 3 side chain; on linkers, the order of the positions; unused ones are H or OH. Square brackets hold non-standard residues; d marks the D form. Peptide text beside a SMILES is read from it. Nva(5-(4-Bn-piperidin-1-yl)) = N[C@@H](CCCN1CCC(Cc2ccccc2)CC1)C(=O)O; X1 = O=C1[C@@H](N[*:1])Cc2ccccc2CN1CCC(=O)[*:2]; Dmt = Cc1cc(O)cc(C)c1C[C@H](N)C(=O)O
PARAMETER_MEASURED: Emax (%)
Hi! Could you send only the number? It should be in %, unit omitted.

Ask | Find Emax (Mu-type opioid receptor (Homo sapiens, UniProt P35372)) for the entry Cc1cc(O)cc(C)c1C[C@H](N)C(=O)N[C@H](CCCNC(=N)N)C(=O)N[C@H]1Cc2ccccc2CN(CCC(=O)N[C@@H](CCCN2CCc3ccccc3C2)C(=O)N[C@@H](Cc2ccccc2)C(N)=O)C1=O
Reply | 98

Ask | How about this molecule: Cc1cc(O)cc(C)c1C[C@H](N)C(=O)N[C@H](CCCCN)C(=O)N[C@H]1Cc2ccccc2CN(CCC(=O)N[C@@H](CCCN2CCC(Cc3ccccc3)CC2)C(=O)N[C@@H](Cc2ccccc2)C(N)=O)C1=O (H-[Dmt][dK][X1][Nva(5-(4-Bn-piperidin-1-yl))]F-NH2)
Reply | 67

====

PROTOCOL_DESCRIPTION: Half life in mouse at 10 mg/kg, sc measured upto 24 hrs by LC-MS/MS analysis
Type: ADME, organism-based
CONDITIONS_USED: in vivo
Numbered stars: 1 amine (or outer) side, 2 acyl side, 3 side chain; on linkers, the order of the positions; unused ones are H or OH. Square brackets hold non-standard residues; d marks the D form. Peptide text beside a SMILES is read from it. Nva(5-(4-Bn-piperidin-1-yl)) = N[C@@H](CCCN1CCC(Cc2ccccc2)CC1)C(=O)O; X1 = O=C1[C@@H](N[*:1])Cc2ccccc2CN1CCC(=O)[*:2]; Dmt = Cc1cc(O)cc(C)c1C[C@H](N)C(=O)O
Values of half-life greater than or equal to 3 h map to class 1; values below map to class 0.

Ask | Confirm if half-life reported for the compound Cc1cc(O)cc(C)c1C[C@H](N)C(=O)N(C)[C@H](C)C(=O)N[C@H]1Cc2c(ccc3ccccc23)CN(CCC(=O)N[C@@H](CCCN2CCC(Cc3ccccc3)CC2)C(=O)N[C@@H](Cc2ccccc2)C(N)=O)C1=O is 3 h or above.
Reply | class 1

Ask | Also need Cc1cc(O)cc(C)c1C[C@H](N)C(=O)N1CCC[C@@H]1C(=O)N[C@H]1Cc2ccccc2CN(CCC(=O)N[C@@H](CCCN2CCC(Cc3ccccc3)CC2)C(=O)N[C@@H](Cc2ccccc2)C(N)=O)C1=O (H-[Dmt][dP][X1][Nva(5-(4-Bn-piperidin-1-yl))]F-NH2) , thanks.
Reply | class 0

Ask | Also, Cc1cc(O)cc(C)c1C[C@H](N)C(=O)N(C)[C@H](C)C(=O)N[C@H]1Cc2c(ccc3ccccc23)CN(CC(=O)N[C@@H](CCCN2CCC(Cc3ccccc3)CC2)C(=O)N[C@@H](Cc2ccccc2)C(N)=O)C1=O please.
Reply | class 1

Ask | Next compound up: Cc1cc(O)cc(C)c1C[C@H](NC(=N)N)C(=O)N[C@H](CCCNC(=N)N)C(=O)N[C@H]1Cc2ccccc2CN(CCC(=O)N[C@@H](CCCN2CCC(Cc3ccccc3)CC2)C(=O)N[C@@H](Cc2ccccc2)C(N)=O)C1=O
Reply | class 1
